System: MDA-MB-468
Assay: NCI-60 screen (SRB), breast cancer
Details: Homo sapiens, MDA-MB-468
Measurement Kind: pIC50
pIC50 (log units): -log10 of the concentration in mol/L.

Prompt line: Consider the molecule COc1cc(OC)c(S(N)(=O)=O)cc1C(=O)/C=C/c1ccc(C)cc1 [Compound 17c] and give its measured pIC50.
Response line: 5.71

Prompt line: Consider the molecule COc1cc(OC)c(S(N)(=O)=O)cc1C(=O)C=Cc1ccccc1 [Compound 17a] and give its measured pIC50.
Response line: 5.92

Prompt line: Consider the molecule COc1cc(OC)c(S(=O)(=O)N(CCCl)CCCl)cc1C(=O)/C=C/c1cc(OC)c(OC)c(OC)c1 [Compound 18e] and give its measured pIC50.
Response line: 5.44

Prompt line: Consider the molecule COc1cc(OC)c(S(N)(=O)=O)cc1C(=O)/C=C/c1ccc(Cl)cc1 [Compound 17b] and give its measured pIC50.
Response line: 5.51

###

System: HOP-92
Assay: NCI-60 screen (SRB), non-small cell lung cancer
Conditions: Homo sapiens, HOP-92, read-out: LC50
Measurement Kind: CC50 (µM)
Write down the numeric answer in µM and omit the unit.

Prompt line: Consider the compound COc1cc(OC)c(S(N)(=O)=O)cc1C(=O)/C=C/c1ccc(Cl)cc1 [Compound 17b] and give its measured CC50.
Response line: 24.9

Prompt line: Consider the compound COc1cc(OC)c(S(N)(=O)=O)cc1C(=O)/C=C/c1ccc(C)cc1 [Compound 17c] and give its measured CC50.
Response line: 35.4

Prompt line: Consider the compound COc1cc(OC)c(S(N)(=O)=O)cc1C(=O)C=Cc1ccccc1 [Compound 17a] and give its measured CC50.
Response line: 37.1

###

Kindly supply the reported melting point values for the records listed here.

Prompt line: Consider the compound COc1cc(OC)c(S(N)(=O)=O)cc1C(=O)/C=C/c1ccc2c(c1)OCO2 [Compound 17f] and give its measured melting point.
Response line: 257 to 258 °C

Prompt line: Consider the compound COc1cc(OC)c(S(N)(=O)=O)cc1C1=NN(C(N)=S)C(c2ccc(Cl)cc2)C1 (stereo not drawn) [Compound 27d] and give its measured melting point.
Response line: 223 to 225 °C

Prompt line: Consider the compound COc1cc(OC)c(S(=O)(=O)N(CCCl)CCCl)cc1C1=NN(C=O)C(c2ccc(Cl)cc2)C1 (stereo not drawn) [Compound 22d] and give its measured melting point.
Response line: 222 to 224 °C

Prompt line: Consider the compound COc1cc(OC)c(S(N)(=O)=O)cc1C1=NN(C=O)C(c2ccc(Cl)cc2)C1 (stereo not drawn) and give its measured melting point.
Response line: 269 to 271 °C

Prompt line: Consider the compound COc1ccc(/C=C/C(=O)c2ccc(OC)c(S(=O)(=O)Nc3cccnc3)c2)cc1 [Compound 16d] and give its measured melting point.
Response line: 228 to 230 °C

Prompt line: Consider the compound COc1ccc(C2=NN(C(N)=S)C(c3ccc(Cl)cc3)C2)cc1S(N)(=O)=O (stereo not drawn) [Compound 27a] and give its measured melting point.
Response line: 206 to 208 °C

Prompt line: Consider the compound COc1cc(OC)c(S(=O)(=O)NNC(=O)c2ccncc2)cc1C(=O)/C=C/c1ccc2c(c1)OCO2 [Compound 20f] and give its measured melting point.
Response line: 150 to 152 °C

Prompt line: Consider the compound COc1ccc(C(=O)/C=C/c2cc(OC)c(OC)c(OC)c2)cc1S(=O)(=O)NNC(=O)c1ccncc1 [Compound 19e] and give its measured melting point.
Response line: 202 to 204 °C

Prompt line: Consider the compound COc1cc(OC)c(S(=O)(=O)N(CCCl)CCCl)cc1C1=NN(C(N)=S)C(c2ccc(Cl)cc2)C1 (stereo not drawn) [Compound 27e] and give its measured melting point.
Response line: 196 to 198 °C

Prompt line: Consider the compound COc1cc(OC)c(S(=O)(=O)NNC(=O)c2ccncc2)cc1C1=NN(C(N)=S)C(c2ccc(Cl)cc2)C1 (stereo not drawn) and give its measured melting point.
Response line: 180 to 182 °C

Prompt line: Consider the compound COc1ccc(C(=O)C=Cc2ccccc2)cc1S(=O)(=O)Nc1cccnc1 [Compound 16a] and give its measured melting point.
Response line: 229 to 230 °C

Prompt line: Consider the compound COc1ccc(C(=O)/C=C/c2ccc(C)cc2)cc1S(=O)(=O)Nc1cccnc1 [Compound 16c] and give its measured melting point.
Response line: 231 to 234 °C
